Provenance of the data: paper PMC2649372

target: N128A mutant 5-HT3 receptor (mouse 5-HT3A subunit) (Mus musculus, UniProt P23979, N128A); experiment: Agonist-induced currents, voltage clamp electrophysiology in Xenopus oocytes; format: cell-based
Sequence (P23979 24-483 isoform P23979-2 N128A limits assumed): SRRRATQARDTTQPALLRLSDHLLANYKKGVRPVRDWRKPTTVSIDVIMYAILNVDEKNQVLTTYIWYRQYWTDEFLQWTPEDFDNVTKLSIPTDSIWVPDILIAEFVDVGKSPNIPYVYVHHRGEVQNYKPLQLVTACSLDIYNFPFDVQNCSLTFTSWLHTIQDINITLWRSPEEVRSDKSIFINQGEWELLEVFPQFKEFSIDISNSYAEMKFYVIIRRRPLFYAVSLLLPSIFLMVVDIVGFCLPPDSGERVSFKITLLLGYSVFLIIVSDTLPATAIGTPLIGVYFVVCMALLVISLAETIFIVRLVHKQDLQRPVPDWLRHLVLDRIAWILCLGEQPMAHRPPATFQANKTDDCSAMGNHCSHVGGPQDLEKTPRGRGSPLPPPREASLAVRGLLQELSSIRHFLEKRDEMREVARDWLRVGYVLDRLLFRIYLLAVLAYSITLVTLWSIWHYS
pEC50: −log10 of the molar value.
Here the recorded pEC50 is given for each entry.
ENDPOINT: pEC50

>>> result("NCCc1c[nH]c2ccccc12")
4.04
>>> result("NCCc1c[nH]c2ccc(F)cc12")
5.00
